Reported pIC50 values, human DGKα (Homo sapiens, UniProt P23743).
Reminder that pIC50 is minus the log10 of a molar concentration.

Checklist item: pIC50 tested on human DGKα (Homo sapiens, UniProt P23743), entry Cn1nnc2nc(N(CC(F)F)c3ccnc(C#CC(C)(C)C#N)c3)c3c(F)cncc3c21 [Example 20] , value?
6.96

---

target: human DGKα (Homo sapiens, UniProt P23743)
Sequence (P23743 whole entry): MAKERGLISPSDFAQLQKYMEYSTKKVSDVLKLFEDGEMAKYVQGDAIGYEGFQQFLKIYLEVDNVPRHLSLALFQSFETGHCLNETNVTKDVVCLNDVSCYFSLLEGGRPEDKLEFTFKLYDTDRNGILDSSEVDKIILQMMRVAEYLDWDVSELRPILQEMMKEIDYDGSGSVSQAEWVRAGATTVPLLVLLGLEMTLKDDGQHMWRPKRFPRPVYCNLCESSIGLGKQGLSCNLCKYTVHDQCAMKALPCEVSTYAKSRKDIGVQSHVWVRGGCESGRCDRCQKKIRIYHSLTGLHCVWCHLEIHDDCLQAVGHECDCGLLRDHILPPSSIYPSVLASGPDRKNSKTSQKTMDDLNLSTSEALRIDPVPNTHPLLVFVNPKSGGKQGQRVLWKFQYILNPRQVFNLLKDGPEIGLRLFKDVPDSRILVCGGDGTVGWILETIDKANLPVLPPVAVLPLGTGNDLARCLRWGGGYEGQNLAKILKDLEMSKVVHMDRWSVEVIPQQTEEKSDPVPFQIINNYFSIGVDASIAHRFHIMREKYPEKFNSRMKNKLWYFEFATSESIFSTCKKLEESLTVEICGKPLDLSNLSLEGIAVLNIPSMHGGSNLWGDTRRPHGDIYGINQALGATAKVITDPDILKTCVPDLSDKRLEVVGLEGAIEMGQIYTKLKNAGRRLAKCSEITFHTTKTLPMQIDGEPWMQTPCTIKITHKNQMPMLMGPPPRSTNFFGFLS
Readout: log10(IC50) (log10 of the value in nM)
Annotation: log10 of IC50, nM basis.

Compound Structure: Cn1nnc2nc(N(CC(F)F)c3ccnc(C#CC4(C)CC4)c3)c3c(F)cncc3c21
log10(IC50): 1.50

Compound Structure: Cn1nnc2nc(N3CCCCc4c(C#CC(C)(C)O)cccc43)c3c(F)cncc3c21
log10(IC50): 0.73

Compound Structure: Cn1nnc2nc(N(CC(F)F)c3cc(F)cc(C#CC(C)(C)C#N)c3)c3c(F)cncc3c21
log10(IC50): 1.63

Compound Structure: Cn1nnc2nc(N3CCCc4c(C#CC(C)(C)C#N)cccc43)c3cc(F)cnc3c21
log10(IC50): 1.71

Compound Structure: Cn1nnc2nc(N(CC(F)F)c3cc(F)cc(C#CC4(C(F)(F)F)CC4)c3)c3c(F)cncc3c21
log10(IC50): 1.71

Compound Structure: Cn1nnc2nc(N(CC(F)F)c3ccnc(C#CC4(C)CC4)c3)c3c(F)cccc3c21
log10(IC50): 1.74

May I ask what log10(IC50) has been recorded for Cn1nnc2nc(N(CC(F)F)c3cc(F)cc(C#CC(C)(C)O)c3)c3cc(F)ccc3c21 ?
1.53

Find the recorded log10(IC50) belonging to CCC1(C#Cc2cccc3c2COCCN3c2nc3nnn(C)c3c3cncc(F)c23)COC1 and report it.
0.44

---

Here the recorded pIC50 is given for each entry.
target: human DGKα (Homo sapiens, UniProt P23743);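 further: recombinant enzyme acting on 18:1 DAG micelles (with POPS and octylglucoside) plus 200 µM ATP, 1 h at 25 °C, ADP generated read out by ADP-Glo luminescence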
The meaning of pIC50 here: minus log10 of the concentration in molar units.

Reference set (4 entries):
Compound: Cn1nnc2nc(N(CC(F)F)c3cc(F)cc(C#CC(C)(C)O)c3)c3cc(F)cnc3c21 [Example 34]
pIC50: 7.58

Compound: Cn1nnc2nc(N3CCCOc4c(C#CC5(C)CC5)cccc43)c3c(F)cncc3c21 [Example 7]
pIC50: 7.94

Compound: Cn1nnc2nc(N3CCOCc4c(C#CC5(C)CC5)cccc43)c3c(F)cncc3c21 [Example 11]
pIC50: 8.07

Compound: Cn1nnc2nc(N3CCCc4c(C#CC(C)(C)C#N)cccc43)c3c(F)cncc3c21 [Example 5]
pIC50: 7.68

With those in mind, consider the next compound.
Reported pIC50, compound Cn1nnc2nc(N3CCCc4c(C#CC5(C)CC5)cncc43)c3cc(F)ccc3c21 [Example 22] : ____
6.91
